Test system: NCI-H460 lung
ASSAY EXPLANATION: NCI tumour cell line growth inhibition, 48 h
Listed below: TGI values for each entry.

Some solved entries appear below for comparison.
N=C1OC(CN2CCN(c3ccccc3)CC2)CN1C(=S)Nc1ccccc1 (stereo not given) : > 100 µM
CC(=O)O[C@H]1C(=O)[C@@]2(C)[C@H]([C@H](OC(=O)c3cccc([N+](=O)[O-])c3)[C@]3(O)C[C@H](OC(=O)[C@H](O)[C@@H](NC(=O)c4ccccc4)c4ccccc4)C(C)=C1C3(C)C)[C@]1(OC(C)=O)CO[C@@H]1C[C@@H]2O : > 25 µM
COc1ccc(C2NC(=S)Nc3c2c(=O)oc2c3ccc3ccccc32)cc1 (stereo not given) : > 100 µM

Specify TGI for N#Cc1cccc2c1Nc1ccccc1S2 and stop. > 100 µM

Provide measured TGI value, entry: Cc1nc([P+](c2ccccc2)(c2ccccc2)c2ccccc2)c(Sc2sc(-c3ccccc3)nc2[P+](c2ccccc2)(c2ccccc2)c2ccccc2)o1 2.8 µM

* * *

System: KM12 colon
ASSAY EXPLANATION: NCI tumour cell line growth inhibition, 48 h
READOUT LABEL: TGI

O=c1[nH]c(Cc2ccccc2)nc2c1sc1nc3ccccc3n12 : > 100 µM

Answer briefly: TGI recorded on KM12 colon for CC(=O)C1=C(C)N2C(=NC3=C(CCc4ccccc43)C2c2ccc(F)cc2)S1 (centres undefined) > 100 µM

Param request: TGI | system KM12 colon | item O=Nc1ccc(O)c(=O)cc1 16.3 µM

Answer briefly: TGI recorded on KM12 colon for CC(C)(C)c1ccc(S(=O)(=O)Oc2ccc3c4c(c(=O)oc3c2)CCCCC4)cc1 > 100 µM

For KM12 colon, give TGI of the listed molecule: COc1cc(/C=C\c2cc(OC)c(OC)c(OC)c2)cc(N/C=C\C(=O)c2ccc(OC(F)(F)F)cc2)c1OC > 100 µM

* * *

Test system: RPMI-8226 leukemia
ASSAY EXPLANATION: NCI tumour cell line growth inhibition, 48 h
Each entry below carries its reported TGI.

Here is how some molecules turned out for TGI.
O=C1NC(N2CCOCC2)=N/C1=C\c1ccc(Cl)cc1 : > 100 µM
CN(C)c1ccc(C=Nc2ccc(Oc3ccc(Cl)cc3)c(Cl)c2)cc1 : 72.3 µM
CC(C)(O)[C@@H]1CC[C@@]2(C)CCCC(O)C2(O)C1 (stereo partly specified) : > 100 µM
O=c1[nH]c2nnc(COc3ccc(Cl)cc3Cl)n2nc1Cc1ccccc1 : > 100 µM
CC1(C)O[C@@H]([C@H](O)CO)[C@H](O)[C@@H](C2SCCCS2)O1 : > 100 µM

In the following, a different molecule is considered.
Provide only the value of recorded TGI for COc1cc(C2Cc3ncccc3-c3[nH]c(=O)c4cccnc4c32)cc(OC)c1OC (stereo unspecified) > 100 µM

* * *

The following compounds are listed with their measured log10 TGI values.
System: SF-268 CNS
ASSAY EXPLANATION: NCI tumour cell line growth inhibition, 48 h
Heads up, the numbers here are log10 of TGI in µM units.

Please review the following examples before continuing.
Oc1ccc(O)c(CNc2ccc(C(O)C(F)(F)F)cc2)c1 (stereo not given) : 1.82
COCCNCc1ccc(-c2cc3nccc(Oc4ccc(NC(=S)NC(=O)Cc5ccc(F)cc5)cc4F)c3s2)nc1 : 0.67
CCCCCN(CCCCC)C(=O)[C@@H](CCC(=O)O)NC(=O)c1cc2ccccc2[nH]1 : 1.92
CCN(Cc1ccc(C)cc1)c1ccc(CO)c(Cl)c1 : 1.48

Now examine the next entry.
For SF-268 CNS, give the measured log10 TGI of the entry Cc1c(Cl)cccc1NC(=O)C(=O)C(C(=O)c1ccccc1-c1ccccc1)C1OC(=O)c2ccccc21 (stereo not given) 1.79

* * *

Below, each of the compounds is paired with its reported TGI value.
Test system: COLO 205 colon
ASSAY EXPLANATION: NCI tumour cell line growth inhibition, 48 h

Sample records with TGI:
O=C(Nc1ccc2[nH]nc(-c3ccncc3)c2c1)[C@@H]1CCN(CC(=O)N2CCN(c3ccc(-c4ncccn4)cc3)CC2)C1 : > 82.3 µM
COc1nc2[nH]ccc2c(=O)[nH]1 : > 100 µM
C=C1CC[C@@H]2[C@](C)(COC(C)=O)[C@H](OC(C)=O)CC[C@@]2(C)[C@@H]1CC(Nc1ccc(S(=O)(=O)NC(C)=O)cc1)C1=CCOC1=O (some centres undefined) : 4.82 µM

Report TGI for Fc1cc2[nH]ncc2c2c3c(c(-c4cn[nH]c4C(F)(F)F)nc12)CCCC3 4.32 µM

* * *

System: 786-0 renal
ASSAY EXPLANATION: NCI tumour cell line growth inhibition, 48 h
Entries and their GI50 values follow.

// worked examples, GI50 included
CCN(CCCN(C)C)Cc1cc(I)cc(C)c1O : 18.6 µM
C=C1CC[C@@H]2[C@](C)(COC(C)=O)[C@H](OC(C)=O)CC[C@@]2(C)[C@@H]1CC(Nc1ccc(S(=O)(=O)NC(C)=O)cc1)C1=CCOC1=O (some centres undefined) : 2.44 µM

Continue with the next compound.
Please report GI50 for the following compound: COc1cc(/C=C\c2cc(OC)c(OC)c(OC)c2)cc(N/C=C\C(=O)c2ccc(OC(F)(F)F)cc2)c1OC 4.34 µM

* * *

Tested on: HCT-116 colon
ASSAY EXPLANATION: NCI tumour cell line growth inhibition, 48 h
Recorded TGI, one value per entry.

O=C(Nc1ccc2[nH]nc(-c3ccncc3)c2c1)[C@@H]1CCN(CC(=O)N2CCN(c3ccc(-c4ncccn4)cc3)CC2)C1 : > 44.6 µM

Determine from records and report TGI for Nc1nc2c3nc(Nc4ccccc4)sc3nc(=S)n2c2sc(Nc3ccccc3)nc12 > 100 µM

Please list TGI recorded for the compound CS(=O)(=O)Nc1cncc(-c2ccc3ncnc(Nc4ccc(F)c(Cl)c4)c3c2)c1 5.77 µM

* * *

Test system: UO-31 renal
ASSAY EXPLANATION: NCI tumour cell line growth inhibition, 48 h; in the data active means GI50 below about 0.43 µM; inactive means the rest
Write down the outcome that applies. Available outcomes: active, inactive

Example entries and their recorded answers appear below.
O=C(Oc1cccc2cccnc12)c1cc2c(cc1Cl)SC(N(c1ccc(F)cc1)S(=O)(=O)c1ccc(Br)s1)=NS2(=O)=O : inactive
CCN(CCCN(C)C)Cc1cc(I)cc(C)c1O : inactive
C/C(=N\NC(=S)N1CCCCC1)c1ccccn1 : active
CC(=O)c1ccc2c(c1)c1cc(C(C)=O)ccc1n2CCNC(C)C : active
O=S(=O)(NCCCNc1nccc(-c2c(-c3ccc(O)cc3)nc3sccn23)n1)c1ccc(F)cc1 : inactive

Write down the call the test reported for this compound. Item: CC(=O)Nc1ccc2c(c1)C(c1ccccc1Cl)=Nc1c(n[nH]c1C)N2 inactive

Outcome logged for CCN1C/C(=C\c2cc(OC)c(OC)cc2OC)C(=O)/C(=C/c2cc(OC)c(OC)cc2OC)C1 in this assay: inactive

What did this assay record as the result for Cc1nc2ccc(Nc3nc(Cl)nc(N4CCOCC4)n3)cc2n1Cc1ccccc1 ? inactive

* * *

Tested on: UO-31 renal
ASSAY EXPLANATION: NCI tumour cell line growth inhibition, 48 h
READOUT LABEL: TGI

For the molecule O=c1ccn(CC2(CO)CCC2)c(=O)[nH]1 , give its reported TGI. > 100 µM

Provide measured TGI value, entry: COc1ccc(C2N(c3ccc(F)cc3)C(=O)N3C(c4ccc(OC)cc4)N(c4ccc(F)cc4)C(=O)N23)cc1 (centres undefined) > 100 µM

Return the recorded TGI value; entry: COc1ccc2c(c1OC)C[C@@H]1c3c(cc4c(c3-2)OCO4)CCN1C 45.4 µM

* * *

Test system: HL-60(TB) leukemia
ASSAY EXPLANATION: NCI tumour cell line growth inhibition, 48 h
READOUT LABEL: TGI

Cc1cn(C2CC(O)C(COC(=O)c3ccccc3)O2)c(=O)[nH]c1=O (stereo not given) : > 100 µM
COc1ccccc1NC(=S)NN=C(C)c1cccc(C(C)=NNC(=S)Nc2ccccc2OC)n1 : 99.5 µM
COc1cc(Nc2nc3cc(N)cc(N)c3nc2-c2ccccc2)cc(OC)c1OC : 23.3 µM
Cc1ccc(S(=O)(=O)OCCn2cnc3nc(NC(=O)c4ccccc4)[nH]c(=O)c32)cc1 : > 100 µM
C=CCn1c(-c2ccc([N+](=O)[O-])cc2)cs/c1=N\C(P(=O)(O)O)P(=O)(O)O : 90.6 µM

Please indicate TGI recorded for CCN(CC)c1cccc2c1/C(=N/O)CCCC2 > 100 µM

Return value of TGI for input O=C(CC(=O)N1N=C(N2CCCCC2)CC1c1ccccc1)Nc1ccccc1 (stereo not given) , no commentary. > 100 µM

Identify TGI associated with the molecule Nc1c(C(=O)O)nnc2cc(Cl)c(Cl)cc12 > 100 µM

Given the molecule O=c1c2cc(I)ccc2nc(SCc2nncs2)n1Cc1ccccc1 , write its reported TGI. > 100 µM

Give TGI for the following molecule: CC1=CC(=O)CC(C)(C)C1/C=C/C(C)=C/C=C/C(C)=C/C=C/C=C(C)/C=C/C=C(C)/C=C/C1C(C)=CC(=O)CC1(C)C (stereo not given) > 100 µM
